# assay-procedure: Enzyme-coupled assay: transfer of acyl-moieties from MMal-CoA to the ACP
# Type: biochemical
# test-parameters: substrate MMal-CoA, acceptor ACP from murine FAS
result-type: kcat (s⁻¹)
The reply should contain only the number, in s⁻¹.

Sample Mutant A15: engineered murine acyltransferase, mutations K186E R300E (protein) NKRPLWFICSGMGTQWRGMGLSLMRLDSFRESILRSDEAVKPLGVKVSDLLLSTDERTFDDIVHAFVSLTAIQIALIDLLTSVGLKPDGIIGHSLGEVACGYADGCLSQREAVLAAYWRGQCIKDAHLPPGSMAAVGLSWEECKQRCPAGVVPACHNSEDTVTISGPQAAVNEFVEQLKQEGVFAEEVRTGGLAFHSYFMEGIAPTLLQALKKVIREPRPRSARWLSTSIPEAQWQSSLARTSSAEYNVNNLVSPVLFQEALWHIPEHAVVLEIAPHALLQAVLKRGVKSSCTIIPLMKEDHKDNLEFFLTNLGKVHLT ; kcat observed: 0.030
